biological target: VEGF-A (Homo sapiens, UniProt P15692); assay: VEGF-A induced sprouting of HUVEC, spheroid-based cellular angiogenesis assay; conditions: VEGF-A 25 ng/mL preincubated with compound, 24 h, read-out: VEGF-A1 IC50
Sequence (P15692 27-191 isoform P15692-4): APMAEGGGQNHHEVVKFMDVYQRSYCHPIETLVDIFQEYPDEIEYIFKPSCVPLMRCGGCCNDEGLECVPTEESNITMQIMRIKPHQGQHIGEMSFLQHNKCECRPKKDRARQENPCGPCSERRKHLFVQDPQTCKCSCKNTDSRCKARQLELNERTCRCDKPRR
MEASURED_ENDPOINT: IC50 (µM)

Look over these answered cases.
COMPOUND: O=C(O)c1ccccc1CNC(=O)c1cc(O)cc(C(=O)O)c1O [IIa-053a]
UNIT_ANNOTATION: µM
IC50: 37
--
COMPOUND: COC(=O)c1cc(OC(C)=O)cc(CS(=O)(=O)Cc2cc(OC(C)=O)cc(C(=O)OC)c2OC(C)=O)c1OC(C)=O [IVc-059a-E2-A4]
UNIT_ANNOTATION: µM
IC50: 25
--
COMPOUND: O=C(O)c1cc(NC(=O)c2cc(O)c(C(=O)O)cc2O)ccc1O [Ia-004a]
UNIT_ANNOTATION: µM
IC50: 28

P. COC(=O)c1cc(NC(=O)c2cc(O)c(C(=O)Nc3ccccc3-c3nnn[nH]3)cc2O)ccc1O [Ic-001a-Tz/004a-E1]
Q. O=C(O)c1cccc(NC(=O)c2cc(O)c(C(=O)O)cc2O)c1 [Ia-002a]
Sorting by IC50 in descending order, would P or Q appear first? Response format: the label of the selected entry.
Q
(Q: 71 µM, P: 35 µM)
